Test: Quantum yield measurements versus Acridine Yellow in EtOH
Assay type: physicochemical
Details: MK library, Table 5; excitation 460 nm
readout.label: φ (quantum yield) (%)

// below: answered molecules
- molecule: "CC1CN(C2=[N+]3C(=C(c4ccc(N)cc4)c4ccc(-n5cc(C6CC6)nn5)n4[B-]3(F)F)C=C2)CC(C)O1 (stereo not drawn)"
  unit.name: "%"
  φ (quantum yield): 0.50
- molecule: "CCCc1cn(-c2ccc3n2[B-](F)(F)[N+]2=C(NCc4cc(OC)ccc4OC)C=CC2=C3c2ccc(N)cc2)nn1"
  unit.name: "%"
  φ (quantum yield): 0.50
- molecule: "Cc1ccccc1CNC1=[N+]2C(=C(c3ccc(N)cc3)c3ccc(-n4cc(CO)nn4)n3[B-]2(F)F)C=C1"
  unit.name: "%"
  φ (quantum yield): 1.92
- molecule: "Nc1ccc(C2=C3C=CC(N4CCCC4)=[N+]3[B-](F)(F)n3c2ccc3-n2cc(CO)nn2)cc1"
  unit.name: "%"
  φ (quantum yield): 0.22
- molecule: "Cc1ccccc1CNC1=[N+]2C(=C(c3ccc(N)cc3)c3ccc(-n4cc(C5CC5)nn4)n3[B-]2(F)F)C=C1"
  unit.name: "%"
  φ (quantum yield): 0.70
- molecule: "COc1ccc(OC)c(CNC2=[N+]3C(=C(c4ccc(N)cc4)c4ccc(-n5cc(CO)nn5)n4[B-]3(F)F)C=C2)c1"
  unit.name: "%"
  φ (quantum yield): 0.88

A. Cc1ccccc1CNC1=[N+]2C(=C(c3ccc(N)cc3)c3ccc(-n4cc(CCc5ccccc5)nn4)n3[B-]2(F)F)C=C1
B. CCCc1cn(-c2ccc3n2[B-](F)(F)[N+]2=C(N(C)Cc4ccccc4)C=CC2=C3c2ccc(N)cc2)nn1
C. CN(Cc1ccccc1)Cc1cn(-c2ccc3n2[B-](F)(F)[N+]2=C(N4CCc5ccccc5C4)C=CC2=C3c2ccc(N)cc2)nn1
D. Nc1ccc(C2=C3C=CC(NCc4cc(F)cc(F)c4)=[N+]3[B-](F)(F)n3c2ccc3-n2cc(CCc3ccccc3)nn2)cc1
E. Cc1ccccc1CNC1=[N+]2C(=C(c3ccc(N)cc3)c3ccc(-n4cc(C5CCCC5)nn4)n3[B-]2(F)F)C=C1
*Q* Falling order of φ (quantum yield), please. List the labels according to the requested ordering.
*A* A, D, E, B, C
(A: 2.03%, D: 0.92%, E: 0.58%, B: 0.32%, C: 0.14%)
